- System: drosophila
- protocol: Tests in vivo on drosophila: two-tube repellency test, Repulsive Index
- statedConditions: 10% solution of product; share of drosophila in product tube versus EtOH tube
experimentalReadout: In vivo tests: Tube product (%)
# value in %; strip the unit string

If you can, please state the reported In vivo tests: Tube product value of CCCCCCC(C)Oc1ccc2ccc(=O)oc2c1 (stereo not drawn) . 6.34

If you can, please state the reported In vivo tests: Tube product value of `CC(C)CCOc1ccc2ccc(=O)oc2c1` . 13.90

If you can, please state the reported In vivo tests: Tube product value of `CCC(CC)Oc1cc(=O)oc2ccccc12` . 6.90

If you can, please state the reported In vivo tests: Tube product value of `CCCCN(CCCC)C(=O)COc1ccc2ccc(=O)oc2c1` . 9.64

If you can, please state the reported In vivo tests: Tube product value of `CCCCCCCCN(CCCCCCCC)C(=O)c1ccc2ccc(=O)oc2c1` . 32.16

If you can, please state the reported In vivo tests: Tube product value of CCC(C)Oc1ccc2oc(=O)ccc2c1 (stereo not drawn) . 9.09

If you can, please state the reported In vivo tests: Tube product value of CCC(C)Oc1cc(=O)oc2ccccc12 (stereo not drawn) . 9.50

If you can, please state the reported In vivo tests: Tube product value of CC(C)C(C)Oc1ccc2ccc(=O)oc2c1 (stereo not drawn) . 13.26

If you can, please state the reported In vivo tests: Tube product value of CCC(C)Oc1ccc2ccc(=O)oc2c1 (stereo not drawn) [EV04070] . 7.21
